B1: KLHDC10 (parent)
chain: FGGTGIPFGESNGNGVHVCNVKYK

Variants of: B1
method-notes: protein stability index of a GFP-peptide fusion (GPS, HEK-293T) (PSI 1-6); higher = more stable;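 note: lentivirally expressed fusions sorted by FACS into six bins by GFP to DsRed ratio, PSI derived from sequencing read proportions per bin multiplied by bin number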
condition-set: c terminus: a fixed tail appended
Decide using protein stability index: a value greater than or equal to 2 is 1, a smaller one is 0.

(Q) Given E10F , state whether its protein stability index is at least 2.
(A) 0

(Q) Given P7F , state whether its protein stability index is at least 2.
(A) 1

(Q) Given K24V , state whether its protein stability index is at least 2.
(A) 0

(Q) Given C19V , state whether its protein stability index is at least 2.
(A) 1

(Q) Given H17Y , state whether its protein stability index is at least 2.
(A) 0

(Q) Given F1G , state whether its protein stability index is at least 2.
(A) 1

(Q) Given T4S , state whether its protein stability index is at least 2.
(A) 0

(Q) Given S11L , state whether its protein stability index is at least 2.
(A) 0

(Q) Given V18N , state whether its protein stability index is at least 2.
(A) 1

(Q) Given G5A , state whether its protein stability index is at least 2.
(A) 1

(Q) Given S11V , state whether its protein stability index is at least 2.
(A) 1
